# Tested target: SARS-CoV-2 NSP3 macrodomain (Mac1) (Severe acute respiratory syndrome coronavirus 2, UniProt P0DTD1)
# Assay: biochemical
# Assay type: binding
# Details: SARS CoV-2 macrodomain HTRF assay, dose-response; read-out: Ki
Value type: pKi
Schema: pKi number; meaning minus log10 of the concentration expressed in molar units.

Provide one value: measured pKi of OCCC(CO)Nc1ncnc2[nH]ccc12 (stereo not drawn) [AVI-3734]
4.32

Provide only the value of recorded pKi for CC(c1ccccc1)C(CO)Nc1ncnc2[nH]ccc12 (stereo not drawn) [AVI-3669]
5.09

Determine from records and report pKi for Cc1c[nH]c2ncnc(NCC3(O)CCC3)c12 [AVI-3571]
4.85

For the compound O=C(O)C(F)(F)F.OCC1(Nc2ncnc3[nH]ccc23)CCCC1 [AVI-3692] , give its measured pKi value.
4.34

For CCC(CC)(CO)Nc1ncnc2[nH]ccc12 [AVI-3695] , write its pKi.
4.43

Answer with the recorded pKi of O=C(O)C(F)(F)F.OC[C@H](Cc1ccc(O)cc1)Nc1ncnc2[nH]ccc12 [AVI-4066] only.
3.17

Consider the compound O=C(O)C(F)(F)F.OCC1(Nc2ncnc3[nH]ccc23)CCC1 [AVI-3670] . State its measured pKi.
4.44

Specify reported pKi for the compound shown: Cc1c[nH]c2ncnc(NCC(C)(C)O)c12 [AVI-3758]
4.59

// fetch pKi given entry OCC(Nc1ncnc2[nH]ccc12)C1CC1 (stereo not drawn) [AVI-3651]
4.35

Please give the documented pKi of Cc1c[nH]c2ncnc(NCC3(O)CCCC3)c12 [AVI-3760]
4.74

Specify pKi for CC(C)(CO)Nc1ncnc2[nH]ccc12 [AVI-5266] and stop.
4.52

Dear colleague, please send me the reported pKi for CCC(C)(CO)Nc1ncnc2[nH]ccc12 (stereo not drawn) [AVI-3697] when you can.
4.47

====

# Tested target: SARS-CoV-2 NSP3 macrodomain (Mac1) (Severe acute respiratory syndrome coronavirus 2, UniProt P0DTD1)
# Assay: biochemical
# Assay type: binding
For each record, write down the corresponding Average % competition.
Provide the reading as a plain figure in %.

Please indicate Average % competition recorded for Cc1nc2cc(NC(=O)C3CC(=O)Nc4ccccc43)ccc2o1 (stereo not shown)
0

// Input: Cc1nn(C)c2sc(C(=O)N3CC(C(=O)O)c4ccccc43)cc12 (stereo not shown) . Output its Average % competition only.
0

Name the recorded Average % competition of the item O=C(O)C1CN(C(=O)c2ccc3[nH]nnc3c2)c2ccccc21 (stereo not shown) in your answer.
25

Complete the entry with Average % competition for O=C1CC(C(=O)Nc2nc3c(s2)CCCC3)c2ccccc2N1 (stereo not shown)
0

Tell me measured Average % competition for Cc1nnc2n1CCN(C(=O)CN1C(=O)CCOc3ccccc31)C2 please.
0

Give recorded Average % competition. O=C(O)C1CCc2nnc(-c3ccc(F)cc3)n2C1 (stereo not shown)
15

Tell me Average % competition reported for CC(C(=O)NCc1c(C(=O)O)[nH]c2ccccc12)n1cncn1 (stereo not shown)
14

Query Average % competition for CC(=O)Nc1ccc(NC(=O)CSc2nnnn2C2CCCC2)cc1
0

State its Average % competition for this molecule: NC(=O)N1CCC[C@H]1C(=O)Nc1ccc2ncnn2c1
14

====

# Tested target: SARS-CoV-2 NSP3 macrodomain (Mac1), P43 crystal form (Severe acute respiratory syndrome coronavirus 2, UniProt P0DTD1)
# Assay type: binding
# Details: stereoisomer(s) modeled in Mac1 crystal structure
Value type: Isomers modeled

Examples with answers:
{"columns": ["Compound", "Isomers modeled"],
 "data": [
  ["CC(C)(O)C1C2CCC2CN1c1ncnc2[nH]ccc12 (centres unmarked)", "SRR"],
  ["CC(O)C(C)Nc1ncnc2[nH]ccc12 (centres unmarked)", "RS,RR"],
  ["CC1CCC(O)(CNc2ncnc3[nH]ccc23)CC1 (centres unmarked)", "rr"],
  ["OC1CCC(O)(CNc2ncnc3[nH]ccc23)CC1 (centres unmarked)", "rr,rr"],
  ["O[C@H]1CC[C@H]2CCN(c3ncnc4[nH]ccc34)[C@H]21", "SSR"],
  ["Cc1c[nH]c2ncnc(NCC3(O)CCCC3)c12", "achiral,achiral"],
  ["C[C@@H]1CCN(c2ncnc3[nH]ccc23)[C@H](CO)C1 (racemic)", "RS,SR"],
  ["CC(C)(CO)Nc1ncnc2[nH]ccc12", "achiral"],
  ["OC1(CNc2ncnc3[nH]ccc23)CCCCC1", "achiral"],
  ["OC1(CNc2ncnc3[nH]ccc23)CCOCC1", "achiral"]
]}

Give me measured Isomers modeled, please, for this compound: OC1(CNc2ncnc3[nH]ccc23)CCSCC1
achiral

Fill in reported Isomers modeled for this entry: Cc1c[nH]c2ncnc(NCC3(O)CCC(C)CC3)c12 (centres unmarked)
rr

Using known records, supply Isomers modeled for CC(C)(O)C1N(c2ncnc3[nH]ccc23)CCC1(C)C (centres unmarked)
R,S

Query Isomers modeled for Cc1c[nH]c2ncnc(NCC3(O)CCC(O)CC3)c12 (centres unmarked)
rr,rr

Cited source for all entries: paper doi:10.1101/2024.08.25.609621
